Hello, the source for this data is PubChem BioAssay (NCI), in case you need it.

Tested on: SK-OV-3 ovarian
procedure.text: NCI-60 one-dose screen, 48 h (100 = growth as untreated, 0 = no growth, -100 = all killed)
stated.conditions: 10 µM unless noted
Description: Growth inhibition of the SK-OV-3 human tumor cell line is measured as a screen for anti-cancer activity. Cells are grown in 96 well plates and exposed to the test compound for 48 hours. Compounds are tested at a single concentration, which is 10^-5 M for most compounds. The reported endpoint is percent growth (GI% or GIPRCNT), where numbers from 0 - 100% represent growth inhibition, and numbers from -100% - 0 represent cell death. For example, a value of 40 represents 60% growth inhibition. […]
The panel holds about 83,000 compounds, 20% with a hit somewhere; the sample as a whole holds those more often.

# chem.smiles, growth (%)
rows = [
    ("CC/C=C\\C[C@H](O)C/C=C1/C(=O)C=C[C@@]1(C)C/C=C\\CCCC(=O)OC", 112),
    ("Cc1[nH]c(-c2cc(N)ccc2Cl)c2c1C(=O)CCCC2", 11.7),
    ("O=C(/C=C/c1ccc(C(F)(F)F)cc1)Nc1ccc(C=C2c3ccccc3C(=O)c3ccccc32)cc1", 77.9),
    ("COc1ccc(-c2nc3ccc(-c4nc5ccc(N6CCN(c7ccc(F)cc7)CC6)cc5[nH]4)cc3[nH]2)cc1OC", 80.6),
    ("CCCn1c(=O)[nH]c(N)c([C@H]2c3ccccc3Oc3[nH]c(=O)n(CCC)c(=O)c32)c1=O", 104),
    ("Cc1ncc(C(=O)Nc2ccc(CN3CCN(C)CC3)c(C(F)(F)F)c2)cc1C#Cc1cnc2cccnn12", 22.9),
    ("O=C(Nc1cccc2[nH]c(C(F)(F)F)nc12)c1ccc(-n2cnnn2)cc1", 104),
    ("Nc1ccc(S(=O)(=O)O)c2ccc(N=Nc3ccc(N=Nc4ccc(S(=O)(=O)O)cc4)c4ccccc34)c(O)c12", 96),
    ("COc1cccc(-c2nc3sccn3c2-c2ccnc(NCCCNS(=O)(=O)c3cccc(F)c3)c2)c1", 54.3),
]
